The entries below are paired with their reported IC50.
Target: EGFR Del19/T790M/C797S (Homo sapiens, UniProt P00533, C797S/DEL746-750/T790M)
Sequence (P00533 with tags, fused parts or gaps DEL746-750/T790M/C797S): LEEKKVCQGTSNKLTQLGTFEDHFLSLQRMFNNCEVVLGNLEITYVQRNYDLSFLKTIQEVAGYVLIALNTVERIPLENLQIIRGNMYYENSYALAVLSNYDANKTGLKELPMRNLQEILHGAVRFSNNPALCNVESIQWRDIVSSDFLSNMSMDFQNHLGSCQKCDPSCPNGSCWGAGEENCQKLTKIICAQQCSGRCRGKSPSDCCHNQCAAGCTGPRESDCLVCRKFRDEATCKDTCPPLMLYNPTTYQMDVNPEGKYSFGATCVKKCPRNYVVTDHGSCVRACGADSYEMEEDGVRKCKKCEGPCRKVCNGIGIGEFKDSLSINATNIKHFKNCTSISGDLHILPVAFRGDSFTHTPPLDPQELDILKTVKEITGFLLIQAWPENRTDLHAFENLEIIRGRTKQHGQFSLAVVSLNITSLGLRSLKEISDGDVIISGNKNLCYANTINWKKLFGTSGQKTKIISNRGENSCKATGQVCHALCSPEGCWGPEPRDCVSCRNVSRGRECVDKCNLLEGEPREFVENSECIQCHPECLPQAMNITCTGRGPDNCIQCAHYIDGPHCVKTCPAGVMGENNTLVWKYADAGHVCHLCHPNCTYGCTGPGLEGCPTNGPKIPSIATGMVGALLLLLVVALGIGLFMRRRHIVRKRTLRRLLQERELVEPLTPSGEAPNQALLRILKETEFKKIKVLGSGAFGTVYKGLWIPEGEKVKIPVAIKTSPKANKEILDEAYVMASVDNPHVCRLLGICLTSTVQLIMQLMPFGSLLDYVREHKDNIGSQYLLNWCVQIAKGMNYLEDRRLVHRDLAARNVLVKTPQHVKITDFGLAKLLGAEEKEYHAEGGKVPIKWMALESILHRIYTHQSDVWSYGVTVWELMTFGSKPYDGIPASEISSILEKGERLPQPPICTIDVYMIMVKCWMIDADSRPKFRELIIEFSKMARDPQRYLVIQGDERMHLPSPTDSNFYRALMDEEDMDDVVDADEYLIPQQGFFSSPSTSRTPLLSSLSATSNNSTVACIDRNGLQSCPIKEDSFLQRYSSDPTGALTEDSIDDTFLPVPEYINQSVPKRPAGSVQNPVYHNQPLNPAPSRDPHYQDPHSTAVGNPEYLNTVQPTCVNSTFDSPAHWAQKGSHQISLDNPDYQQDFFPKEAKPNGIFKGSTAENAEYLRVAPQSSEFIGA
Assay: Biochemical EGFR kinase inhibition assay (Lance Ultra TR-FRET), triple mutant del19/T790M/C797S
Conditions: IC50 Del19/T790M/C797S (nM), 100 μM ATP

compound | IC50, nM
O=S(=O)(C1CC1)n1cc(-c2nccc(Nc3cc(N4CCC(CCO)CC4)c(C#Cc4cnn(C5CC5(F)F)c4)cn3)n2)cn1 (centres unmarked) | 3.3
Cn1cc(C#Cc2cnc(Nc3ccnc(-c4cnn(S(=O)(=O)C5CC5)c4)n3)cc2NCC(C)(C)CO)cn1 | 2.6
CS(=O)(=O)N1CCC(C#Cc2cnc(Nc3ccnc(-c4cnn(S(=O)(=O)C5CC5)c4)n3)cc2NC2CCC(O)CC2)C1 (centres unmarked) | 5.7
Cn1cnc(C#Cc2cnc(Nc3ccnc(-c4cnn(S(=O)(=O)C5CC5)c4)n3)cc2N[C@H]2CC[C@@H](O)CC2)n1 | 3.4
CN(C)CCC1CCN(c2cc(Nc3ccnc(-c4cnn(S(=O)(=O)C5CC5)c4)n3)ncc2C#Cc2cnn(CC(F)F)c2)CC1 | 0.3
O=S(=O)(C1CC1)n1cc(-c2nccc(Nc3cc(N4CCC(CCO)CC4)c(C#Cc4cnn(CCF)c4)cn3)n2)cn1 | 2
CC1(CO)CCN(c2cc(Nc3ccnc(-c4cnn(S(=O)(=O)C5CC5)c4)n3)ncc2C#Cc2ccncc2)CC1 | 0.5
O=S(=O)(C1CC1)n1cc(-c2nccc(Nc3cc(N4CCC(O)CC4)c(C#Cc4cnn(CCF)c4)cn3)n2)cn1 | 0.7
O=C(N1CCC(C#Cc2cnc(Nc3ccnc(-c4cnn(S(=O)(=O)C5CC5)c4)n3)cc2NC2CCC(O)CC2)C1)C(F)(F)F (centres unmarked) | 0.4
O=S(=O)(C1CC1)N1CCC(C#Cc2cnc(Nc3ccnc(-c4cnn(S(=O)(=O)C5CC5)c4)n3)cc2N[C@H]2CC[C@@H](O)CC2)CC1 | 1.3
CC1(CO)CCN(c2cc(Nc3ccnc(-c4cnn(S(=O)(=O)C5CC5)c4)n3)ncc2C#CC2(O)CCOCC2)CC1 | 0.4
CC1(O)CCN(c2cc(Nc3ccnc(-c4cnn(S(=O)(=O)C5CC5)c4)n3)ncc2C#CC2CCO[C@H]2C(F)(F)F)CC1 (some centres unmarked) | 1.6
CC1(CO)CCN(c2cc(Nc3ccnc(Nc4ccccc4S(C)(=O)=O)n3)ncc2C#Cc2cnn(C(F)F)c2)CC1 | 3
CN(C)C[C@H]1CC[C@@H](Nc2cc(Nc3ccnc(-c4cnn(S(=O)(=O)C5CC5)c4)n3)ncc2C#Cc2cnn(C(F)(F)F)c2)CC1 | 0.9
O=S(=O)(C1CC1)n1cc(-c2nccc(Nc3cc(N[C@H]4CC[C@@H](O)CC4)c(C#CC4C[C@@H]5CC[C@@H]4O5)cn3)n2)cn1 (some centres unmarked) | 0.2
O=S(=O)(C1CC1)n1cc(-c2nccc(Nc3cc(N[C@H]4CC[C@@H](O)CC4)c(C#CC4(O)CCCC4)cn3)n2)cn1 | 0.4
C[C@]1(O)CC[C@@H](Nc2cc(Nc3ccnc(-c4cnn(S(=O)(=O)C5CC5)c4)n3)ncc2C#Cc2cnn(C(F)(F)F)c2)CC1 | 3.2
CC(O)CC#Cc1cnc(Nc2ccnc(-c3cnn(S(=O)(=O)C4CC4)c3)n2)cc1N1CCC(C)(CO)CC1 (centres unmarked) | 0.1
CN(C)CCC1CCN(c2cc(Nc3ccnc(-c4cnn(S(=O)(=O)C5CC5)c4)n3)ncc2C#CC2CCN(C(=O)C(F)(F)F)C2)CC1 (centres unmarked) | 0.1
C[C@H](Nc1cc(Nc2ccnc(-c3cnn(S(=O)(=O)C4CC4)c3)n2)ncc1C#Cc1cnn(C)c1)C(C)(C)O | 3.8
CN(C)CCn1cc(C#Cc2cnc(Nc3ccnc(-c4cnn(S(=O)(=O)C5CC5)c4)n3)cc2N2CCC(NCCF)CC2)cn1 | 0.3
CN(C)CC1CCN(c2cc(Nc3ccnc(-c4cnn(S(=O)(=O)C5CC5)c4)n3)ncc2C#Cc2cnn(C)c2)CC1 | 0.8
Cn1cc(C#Cc2cnc(Nc3ccnc(-c4cnn(S(=O)(=O)C5CC5)c4)n3)cc2N[C@@H]2CCC[C@@H](O)C2)cn1 | 4
CC1(CO)CCN(c2cc(Nc3ccnc(-c4cnn(S(=O)(=O)C5CC5)c4)n3)ncc2C#CC2(O)CCC2)CC1 | 1.2
Cn1ncc(C#Cc2cnc(Nc3ccnc(-c4cnn(S(=O)(=O)C5CC5)c4)n3)cc2N2CCC(CCO)CC2)c1C1CC1 | 2.3
CN(C)CC1(C)CCN(c2cc(Nc3ccnc(-c4cnn(S(=O)(=O)C5CC5)c4)n3)ncc2C#Cc2cnn(CC(F)F)c2)CC1 | 0.3
